Target: UniProtKB P00519
Sequence (P00519 whole entry, species assumed): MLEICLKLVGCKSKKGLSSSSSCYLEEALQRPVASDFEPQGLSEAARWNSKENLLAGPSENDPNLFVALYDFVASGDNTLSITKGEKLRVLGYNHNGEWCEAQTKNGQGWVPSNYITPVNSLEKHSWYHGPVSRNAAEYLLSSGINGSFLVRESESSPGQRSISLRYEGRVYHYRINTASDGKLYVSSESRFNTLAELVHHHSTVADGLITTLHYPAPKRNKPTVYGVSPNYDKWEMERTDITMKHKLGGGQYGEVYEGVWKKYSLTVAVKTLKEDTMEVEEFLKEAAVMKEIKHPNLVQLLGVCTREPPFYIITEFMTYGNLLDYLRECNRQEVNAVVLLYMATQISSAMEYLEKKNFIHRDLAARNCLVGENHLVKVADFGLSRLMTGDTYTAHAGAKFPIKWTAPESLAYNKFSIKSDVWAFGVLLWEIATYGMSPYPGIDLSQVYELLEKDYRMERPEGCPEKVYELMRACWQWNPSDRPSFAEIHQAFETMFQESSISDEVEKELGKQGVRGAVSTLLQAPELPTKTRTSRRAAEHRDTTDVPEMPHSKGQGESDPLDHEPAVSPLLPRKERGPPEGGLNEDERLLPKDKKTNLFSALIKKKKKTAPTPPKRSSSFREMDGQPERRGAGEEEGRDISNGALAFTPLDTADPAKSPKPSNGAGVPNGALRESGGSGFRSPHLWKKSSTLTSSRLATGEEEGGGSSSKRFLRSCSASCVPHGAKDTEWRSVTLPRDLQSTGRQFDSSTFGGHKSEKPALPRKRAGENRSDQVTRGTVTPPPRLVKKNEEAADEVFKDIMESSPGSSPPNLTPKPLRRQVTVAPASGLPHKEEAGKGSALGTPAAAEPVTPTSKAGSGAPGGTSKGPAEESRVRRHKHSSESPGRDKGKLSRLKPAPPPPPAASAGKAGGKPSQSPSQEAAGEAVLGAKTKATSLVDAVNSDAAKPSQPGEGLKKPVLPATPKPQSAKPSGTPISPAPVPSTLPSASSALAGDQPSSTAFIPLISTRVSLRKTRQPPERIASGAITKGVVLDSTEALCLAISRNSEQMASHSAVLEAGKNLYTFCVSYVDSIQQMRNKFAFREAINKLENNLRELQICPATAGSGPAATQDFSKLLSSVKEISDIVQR
Assay: Kinase profiling ABL
Format: biochemical
Conditions: 100 micromolar inhibitor concentration; 100 is no change; read-out: residual kinase activity, ABL
READOUT TYPE: remaining activity at 100 µM (%)
Reply with just the number (in %).

-- ask Consider the compound COc1ccc2sc(NC(C)=O)nc2c1 [Compound 03-21] and give its measured remaining activity at 100 µM.
-- reply 111

-- ask Consider the compound CC(=O)Nc1nc2ccc(C(F)(F)F)cc2s1 [Compound 01-90] and give its measured remaining activity at 100 µM.
-- reply 31

-- ask Consider the compound CC(=O)Nc1nc2ccc(O)cc2s1 [Compound 01-71] and give its measured remaining activity at 100 µM.
-- reply 17

-- ask Consider the compound CC(=O)Nc1nc2ccc(C#N)cc2s1 [Compound 01-94] and give its measured remaining activity at 100 µM.
-- reply 31

-- ask Consider the compound CC(=O)Nc1nc2cc(C(F)(F)F)ccc2s1 [Compound 03-73] and give its measured remaining activity at 100 µM.
-- reply 109

-- ask Consider the compound CC(=O)Nc1nc2cc(F)ccc2s1 [Compound 03-77] and give its measured remaining activity at 100 µM.
-- reply 86

###

Biological target: MEKK1 (Homo sapiens)
Sequence (Q13233 whole entry, species assumed): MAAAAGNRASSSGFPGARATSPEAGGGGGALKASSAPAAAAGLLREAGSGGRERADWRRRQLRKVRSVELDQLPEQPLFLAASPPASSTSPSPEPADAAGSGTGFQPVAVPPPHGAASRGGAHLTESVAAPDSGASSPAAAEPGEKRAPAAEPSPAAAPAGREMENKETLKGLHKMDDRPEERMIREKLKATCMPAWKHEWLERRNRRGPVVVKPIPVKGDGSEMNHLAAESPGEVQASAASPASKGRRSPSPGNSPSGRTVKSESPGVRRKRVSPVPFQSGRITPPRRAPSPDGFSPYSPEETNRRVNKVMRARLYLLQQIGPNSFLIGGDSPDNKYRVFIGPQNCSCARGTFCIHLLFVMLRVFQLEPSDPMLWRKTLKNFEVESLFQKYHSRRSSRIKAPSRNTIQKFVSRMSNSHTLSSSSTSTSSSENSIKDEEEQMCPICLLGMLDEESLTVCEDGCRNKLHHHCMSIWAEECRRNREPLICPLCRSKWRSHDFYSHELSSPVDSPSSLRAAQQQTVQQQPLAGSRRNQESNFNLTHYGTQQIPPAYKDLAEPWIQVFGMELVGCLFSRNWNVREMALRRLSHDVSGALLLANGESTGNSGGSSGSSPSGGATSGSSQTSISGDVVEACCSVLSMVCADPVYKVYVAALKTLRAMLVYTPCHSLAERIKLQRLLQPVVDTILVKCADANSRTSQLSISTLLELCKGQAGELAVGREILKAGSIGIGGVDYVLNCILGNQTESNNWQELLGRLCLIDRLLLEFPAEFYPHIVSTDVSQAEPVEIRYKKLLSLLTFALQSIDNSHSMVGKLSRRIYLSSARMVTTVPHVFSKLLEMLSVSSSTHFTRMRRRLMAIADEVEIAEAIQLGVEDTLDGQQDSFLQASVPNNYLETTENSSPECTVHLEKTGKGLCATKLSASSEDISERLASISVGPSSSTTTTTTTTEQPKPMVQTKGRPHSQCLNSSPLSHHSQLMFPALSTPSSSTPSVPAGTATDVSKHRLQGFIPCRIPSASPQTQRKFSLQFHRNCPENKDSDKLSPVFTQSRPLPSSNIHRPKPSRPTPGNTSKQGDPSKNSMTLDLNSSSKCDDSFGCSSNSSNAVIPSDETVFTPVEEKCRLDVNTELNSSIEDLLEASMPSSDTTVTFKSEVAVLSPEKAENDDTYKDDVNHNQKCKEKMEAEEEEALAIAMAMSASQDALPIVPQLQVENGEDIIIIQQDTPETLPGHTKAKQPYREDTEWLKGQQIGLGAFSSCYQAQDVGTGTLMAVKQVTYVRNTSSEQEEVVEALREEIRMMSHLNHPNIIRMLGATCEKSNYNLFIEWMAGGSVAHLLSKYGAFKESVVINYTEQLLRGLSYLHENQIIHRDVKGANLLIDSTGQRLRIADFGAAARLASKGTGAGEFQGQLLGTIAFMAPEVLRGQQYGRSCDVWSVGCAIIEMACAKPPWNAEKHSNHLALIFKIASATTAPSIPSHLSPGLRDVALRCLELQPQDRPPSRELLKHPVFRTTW
Assay: Kinase profiling MEKK1
Format: biochemical
Conditions: 100 micromolar inhibitor concentration; 100 is no change
Provide the recorded residual kinase activity, MEKK1 for the entries that follow.
Kindly provide the number alone.

-- ask Consider the compound O=C(Nc1nc2cc(O)ccc2s1)c1cccnc1 [Compound 03-33] and give its measured residual kinase activity, MEKK1.
-- reply 107

-- ask Consider the compound CC(=O)Nc1nc2ccccc2s1 [Compound 03-32] and give its measured residual kinase activity, MEKK1.
-- reply 93

-- ask Consider the compound O=C(Nc1nc2ccc(O)cc2s1)c1ccccn1 [Compound 03-12] and give its measured residual kinase activity, MEKK1.
-- reply 127

-- ask Consider the compound O=C(Nc1nc2cc(O)ccc2s1)c1ccccn1 [Compound 03-13] and give its measured residual kinase activity, MEKK1.
-- reply 114

###

Target: CK1γ2 (Homo sapiens)
Sequence (P78368 whole entry): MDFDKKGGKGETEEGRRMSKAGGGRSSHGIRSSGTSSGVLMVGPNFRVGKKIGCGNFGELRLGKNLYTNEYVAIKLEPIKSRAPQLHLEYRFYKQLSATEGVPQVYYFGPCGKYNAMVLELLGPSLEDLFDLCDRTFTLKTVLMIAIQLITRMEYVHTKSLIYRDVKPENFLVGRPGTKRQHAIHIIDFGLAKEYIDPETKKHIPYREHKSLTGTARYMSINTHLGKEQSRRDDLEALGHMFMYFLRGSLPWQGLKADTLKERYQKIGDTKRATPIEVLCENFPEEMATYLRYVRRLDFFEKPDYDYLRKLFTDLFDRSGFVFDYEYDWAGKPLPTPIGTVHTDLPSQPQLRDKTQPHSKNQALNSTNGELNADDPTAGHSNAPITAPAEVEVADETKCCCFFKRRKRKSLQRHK
Assay: Kinase profiling CK1γ2
Format: biochemical
Conditions: 100 micromolar inhibitor concentration; 100 is no change; read-out: residual kinase activity, CK1γ2
READOUT TYPE: remaining activity at 100 µM (%)
Reply with just the number (in %).

-- ask Consider the compound CC(=O)Nc1nc2ccc(C(F)(F)F)cc2s1 and give its measured remaining activity at 100 µM.
-- reply 59

-- ask Consider the compound CC(=O)Nc1nc2ccc(O)cc2s1 and give its measured remaining activity at 100 µM.
-- reply 10

-- ask Consider the compound CC(=O)Nc1nc2ccc(C#N)cc2s1 and give its measured remaining activity at 100 µM.
-- reply 18

-- ask Consider the compound CC(=O)Nc1nc2cc(C(F)(F)F)ccc2s1 and give its measured remaining activity at 100 µM.
-- reply 79

-- ask Consider the compound COc1ccc2sc(NC(C)=O)nc2c1 and give its measured remaining activity at 100 µM.
-- reply 6

-- ask Consider the compound CC(=O)Nc1nc2cc(F)ccc2s1 and give its measured remaining activity at 100 µM.
-- reply 22

###

Target: ERK2 (Homo sapiens, UniProt P28482)
Sequence (P28482 whole entry, species assumed): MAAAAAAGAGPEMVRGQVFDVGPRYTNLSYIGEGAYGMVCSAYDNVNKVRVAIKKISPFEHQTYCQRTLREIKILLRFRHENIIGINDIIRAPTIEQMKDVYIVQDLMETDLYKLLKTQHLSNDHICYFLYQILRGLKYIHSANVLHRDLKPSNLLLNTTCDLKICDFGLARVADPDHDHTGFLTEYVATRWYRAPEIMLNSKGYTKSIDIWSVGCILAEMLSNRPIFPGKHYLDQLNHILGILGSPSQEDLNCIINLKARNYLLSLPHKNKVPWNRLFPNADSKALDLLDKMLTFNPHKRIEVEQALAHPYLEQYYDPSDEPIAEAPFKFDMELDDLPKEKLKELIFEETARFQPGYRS
Test: Kinase profiling ERK2
Assay type: biochemical
Details: 100 micromolar inhibitor concentration; 100 is no change
READOUT TYPE: residual kinase activity, ERK2
Kindly provide the number alone.

-- ask Consider the compound CC(=O)Nc1cccc(C(=O)Nc2nc3cc(O)ccc3s2)c1 [MS:LY-2-89] and give its measured residual kinase activity, ERK2.
-- reply 68

-- ask Consider the compound CC(=O)NC(C)C(=O)Nc1nc2ccc(C(F)(F)F)cc2s1 (stereo not drawn) [Compound 03-80] and give its measured residual kinase activity, ERK2.
-- reply 101

-- ask Consider the compound O=C(Nc1nc2ccc(O)cc2s1)c1cccnc1 [Compound 08-44] and give its measured residual kinase activity, ERK2.
-- reply 75

-- ask Consider the compound CC(=O)Nc1cccc(C(=O)Nc2nc3ccc(O)cc3s2)c1 [Compound 03-58] and give its measured residual kinase activity, ERK2.
-- reply 104

-- ask Consider the compound CC(=O)Nc1nc2cc(C)ccc2s1 [Compound 03-76] and give its measured residual kinase activity, ERK2.
-- reply 96

-- ask Consider the compound CC(=O)Nc1ccc(C(=O)Nc2nc3cc(O)ccc3s2)cc1 [MS:LY-2-87] and give its measured residual kinase activity, ERK2.
-- reply 81

###

Target: MKK6 (Homo sapiens, UniProt P52564)
Sequence (P52564 1-334): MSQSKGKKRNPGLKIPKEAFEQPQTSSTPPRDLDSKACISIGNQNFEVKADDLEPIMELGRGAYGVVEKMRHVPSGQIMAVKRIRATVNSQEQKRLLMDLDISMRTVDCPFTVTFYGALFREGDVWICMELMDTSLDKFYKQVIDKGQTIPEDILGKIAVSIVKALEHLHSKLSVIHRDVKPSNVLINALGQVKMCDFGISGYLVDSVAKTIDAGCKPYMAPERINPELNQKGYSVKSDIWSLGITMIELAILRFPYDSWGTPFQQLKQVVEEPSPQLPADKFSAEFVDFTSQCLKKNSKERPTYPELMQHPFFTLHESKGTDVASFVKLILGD
Assay: Kinase profiling MKK6
Format: biochemical
Conditions: 100 micromolar inhibitor concentration; 100 is no change; read-out: residual kinase activity, MKK6
READOUT TYPE: remaining activity at 100 µM (%)
Reply with just the number (in %).

-- ask Consider the compound CC(=O)Nc1nc2cc(C(F)(F)F)ccc2s1 [Compound 03-73] and give its measured remaining activity at 100 µM.
-- reply 120

-- ask Consider the compound CC(=O)Nc1nc2ccc(C#N)cc2s1 [Compound 01-94] and give its measured remaining activity at 100 µM.
-- reply 98

-- ask Consider the compound CC(=O)Nc1nc2cc(F)ccc2s1 [Compound 03-77] and give its measured remaining activity at 100 µM.
-- reply 118

-- ask Consider the compound CC(=O)Nc1nc2ccc(O)cc2s1 [Compound 01-71] and give its measured remaining activity at 100 µM.
-- reply 78

-- ask Consider the compound COc1ccc2sc(NC(C)=O)nc2c1 [Compound 03-21] and give its measured remaining activity at 100 µM.
-- reply 117

-- ask Consider the compound CC(=O)Nc1nc2ccc(C(F)(F)F)cc2s1 [Compound 01-90] and give its measured remaining activity at 100 µM.
-- reply 85

###

Provide the recorded remaining activity at 100 µM for the entries that follow.
Target: MPSK1 (Homo sapiens)
Sequence (O75716 whole entry, species assumed): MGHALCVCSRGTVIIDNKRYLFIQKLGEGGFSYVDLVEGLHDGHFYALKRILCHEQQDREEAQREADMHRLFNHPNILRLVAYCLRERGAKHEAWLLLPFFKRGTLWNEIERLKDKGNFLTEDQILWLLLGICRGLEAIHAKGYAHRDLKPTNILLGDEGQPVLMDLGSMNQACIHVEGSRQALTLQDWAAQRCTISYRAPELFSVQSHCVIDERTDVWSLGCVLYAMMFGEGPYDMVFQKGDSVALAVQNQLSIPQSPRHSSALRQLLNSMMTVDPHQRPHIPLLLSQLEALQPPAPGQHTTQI
Assay: Kinase profiling MPSK1
Type: biochemical
Conditions: 100 micromolar inhibitor concentration; 100 is no change; read-out: residual kinase activity, MPSK1

-- ask Consider the molecule CC(=O)Nc1nc2cc(C(F)(F)F)ccc2s1 and give its measured remaining activity at 100 µM.
-- reply 97%

-- ask Consider the molecule CC(=O)Nc1nc2ccc(O)cc2s1 and give its measured remaining activity at 100 µM.
-- reply 77%

-- ask Consider the molecule COc1ccc2sc(NC(C)=O)nc2c1 and give its measured remaining activity at 100 µM.
-- reply 97%

-- ask Consider the molecule CC(=O)Nc1nc2cc(F)ccc2s1 and give its measured remaining activity at 100 µM.
-- reply 86%

-- ask Consider the molecule CC(=O)Nc1nc2ccc(C#N)cc2s1 and give its measured remaining activity at 100 µM.
-- reply 94%

-- ask Consider the molecule CC(=O)Nc1nc2ccc(C(F)(F)F)cc2s1 and give its measured remaining activity at 100 µM.
-- reply 105%

###

Provide the recorded residual kinase activity, p38b MAPK for the entries that follow.
Target: p38b MAPK (Homo sapiens)
Sequence (Q15759 whole entry): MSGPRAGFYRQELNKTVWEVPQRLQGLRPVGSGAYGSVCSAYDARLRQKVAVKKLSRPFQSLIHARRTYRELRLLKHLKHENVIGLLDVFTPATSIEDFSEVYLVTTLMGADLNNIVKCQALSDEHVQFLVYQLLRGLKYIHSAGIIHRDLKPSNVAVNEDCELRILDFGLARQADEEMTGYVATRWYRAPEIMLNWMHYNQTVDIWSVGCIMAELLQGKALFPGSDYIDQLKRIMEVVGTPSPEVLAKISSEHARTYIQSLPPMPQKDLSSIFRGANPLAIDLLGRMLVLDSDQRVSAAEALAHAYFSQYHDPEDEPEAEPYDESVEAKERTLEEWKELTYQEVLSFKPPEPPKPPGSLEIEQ
Assay: Kinase profiling p38b MAPK
Type: biochemical
Settings: 100 micromolar inhibitor concentration; 100 is no change
Source text: Any value less that 25 is considered to be highly significant inhibition.

-- ask Consider the compound CC(=O)Nc1cccc(C(=O)Nc2nc3ccc(O)cc3s2)c1 and give its measured residual kinase activity, p38b MAPK.
-- reply 75

-- ask Consider the compound COc1ccc2sc(NC(=O)c3cccc(NC(C)=O)c3)nc2c1 and give its measured residual kinase activity, p38b MAPK.
-- reply 92

-- ask Consider the compound O=C(Nc1nc2ccc(O)cc2s1)c1cccnc1 and give its measured residual kinase activity, p38b MAPK.
-- reply 89

-- ask Consider the compound O=C(Nc1nc2cc(O)ccc2s1)c1cccnc1 and give its measured residual kinase activity, p38b MAPK.
-- reply 87

-- ask Consider the compound CC(=O)NC(C)C(=O)Nc1nc2ccc(C(F)(F)F)cc2s1 (stereo not shown) and give its measured residual kinase activity, p38b MAPK.
-- reply 77

-- ask Consider the compound CC(=O)Nc1ccccc1C(=O)Nc1nc2ccc(O)cc2s1 and give its measured residual kinase activity, p38b MAPK.
-- reply 96

-- ask Consider the compound O=C(Nc1nc2ccc(O)cc2s1)c1ccccc1 and give its measured residual kinase activity, p38b MAPK.
-- reply 76

-- ask Consider the compound O=C(Nc1nc2cc(O)ccc2s1)c1ccncc1 and give its measured residual kinase activity, p38b MAPK.
-- reply 97

-- ask Consider the compound CC(=O)Nc1nc2ccccc2s1 and give its measured residual kinase activity, p38b MAPK.
-- reply 107

-- ask Consider the compound COc1ccc2sc(NC(=O)c3ccc(NC(C)=O)cc3)nc2c1 and give its measured residual kinase activity, p38b MAPK.
-- reply 110

-- ask Consider the compound O=C(Nc1nc2ccc(O)cc2s1)c1ccncc1 and give its measured residual kinase activity, p38b MAPK.
-- reply 86

-- ask Consider the compound O=C(Nc1nc2cc(O)ccc2s1)c1ccccn1 and give its measured residual kinase activity, p38b MAPK.
-- reply 91

-- ask Consider the compound CC(=O)Nc1cccc(C(=O)Nc2nc3cc(O)ccc3s2)c1 and give its measured residual kinase activity, p38b MAPK.
-- reply 17

-- ask Consider the compound O=C(Nc1nc2ccc(O)cc2s1)c1ccccn1 and give its measured residual kinase activity, p38b MAPK.
-- reply 105

-- ask Consider the compound CC(=O)Nc1nc2cc(C)ccc2s1 and give its measured residual kinase activity, p38b MAPK.
-- reply 83

-- ask Consider the compound CC(=O)Nc1ccc(C(=O)Nc2nc3cc(O)ccc3s2)cc1 and give its measured residual kinase activity, p38b MAPK.
-- reply 82
